test system: Bacillus subtilis ATCC 6633
Catalogue of MIC values
Give the value in µM but do not write µM after it.

Example entries begin here.
givenSmiles	MIC [µM]
CC(C)C[C@H](NC(=O)[C@H](Cc1c[nH]c2ccccc12)NC(=O)CNC(=O)[C@H](CC(C)C)NC(=O)[C@@H](N)Cc1ccccc1)C(=O)N[C@@H](Cc1ccccc1)C(=O)N[C@@H](CCCCN)C(=O)N[C@@H](Cc1c[nH]c2ccccc12)C(=O)N[C@@H](C)C(=O)N[C@@H](CO)C(=O)N[C@@H](CCCCN)C(N)=O	18.1
CC(C)C[C@H](NC(=O)[C@H](C)NC(=O)CNC(=O)[C@H](CC(C)C)NC(=O)[C@@H](N)Cc1ccccc1)C(=O)N[C@@H](Cc1c[nH]c2ccccc12)C(=O)N[C@@H](CC(N)=O)C(=O)N[C@H](C(=O)N[C@@H](C)C(=O)N[C@@H](CCCCN)C(=O)N[C@@H](CO)C(=O)N[C@@H](Cc1ccc(O)cc1)C(=O)N[C@@H](Cc1ccccc1)C(N)=O)C(C)C	1.6
CC(C)C[C@H](NC(=O)[C@H](CC(C)C)NC(=O)[C@H](CCCCN)NC(=O)[C@H](CCCCN)NC(=O)[C@H](CC(C)C)NC(=O)[C@H](Cc1c[nH]c2ccccc12)NC(=O)[C@H](CCCCN)NC(=O)[C@H](CC(C)C)NC(=O)[C@@H](N)CC(C)C)C(=O)N[C@@H](CCCCN)C(=O)N[C@@H](CCCCN)C(N)=O	1.42
CC[C@H](C)[C@H](NC(=O)CNC(=O)[C@@H](NC(=O)[C@H](CCCCN)NC(=O)[C@H](CCCCN)NC(=O)[C@H](Cc1ccccc1)NC(=O)[C@H](CC(C)C)NC(=O)[C@H](CCCCN)NC(=O)[C@H](Cc1c[nH]c2ccccc12)NC(=O)[C@@H](N)CCCCN)[C@@H](C)CC)C(=O)NCC(=O)N[C@@H](C)C(=O)N[C@H](C(=O)N[C@@H](CC(C)C)C(=O)N[C@@H](CCCCN)C(=O)N[C@H](C(=O)N[C@@H](CC(C)C)C(=O)N[C@H](C(=O)N[C@H](C(=O)NCC(N)=O)[C@@H](C)O)[C@@H](C)O)C(C)C)C(C)C	1.1

Req: Entry under review: `CC(C)C[C@H](NC(=O)CNC(=O)[C@H](CCCCN)NC(=O)[C@H](CC(C)C)NC(=O)[C@H](CC(N)=O)NC(=O)[C@@H](N)CC(C)C)C(=O)N[C@@H](Cc1ccccc1)C(=O)N[C@@H](CCCCN)C(=O)N[C@@H](CCCCN)C(=O)N[C@H](C(=O)N[C@@H](C)C(=O)N[C@@H](CO)C(=O)N[C@@H](CC(C)C)C(=O)N[C@@H](CC(C)C)C(=O)N[C@H](C(=O)O)[C@@H](C)O)C(C)C` . Reported MIC?
Resp: 30
